System: cervical adenocarcinoma HeLa
Test: MTT cell viability assay, HeLa
Format: cell-based, human
Details: 72 h, median (95% Confidence Intervals)
measurementKind: pIC50
pIC50 (log units): -log10 of the concentration in mol/L.

Query: Look up pIC50 for this molecule: N.N.[Cl][Pt][Cl] [Cisplatin, cisplatin, reference compound]
Result: 4.87

====

Entries and their measured Ki follow.
Target: recombinant human PDE5A/PDE5 protein (Homo sapiens)
Assay: colorimetric PDE Activity Assay Kit (Abcam), PDE5 inhibition
Details: read-out: Ki against human PDE5
Numeric answer only, unit nM assumed.

CN1CC(=O)N(Cc2cc3c(cc2Br)OCO3)[C@H](Cc2c[nH]c3ccccc23)C1=O [Compound 7a] | 220

Query: Look up Ki for this molecule: CN1CC(=O)N(Cc2ccc3c(c2)OCO3)[C@H](Cc2c[nH]c3ccccc23)C1=O [Compound 6a]
Result: 1400

Query: Look up Ki for this molecule: CN1CC(=O)N(Cc2ccc3c(c2)OCO3)[C@@H](Cc2c[nH]c3ccccc23)C1=O [Compound 6b]
Result: 2600

Query: Look up Ki for this molecule: CN1CC(=O)N(Cc2cc3c(cc2Br)OCO3)[C@@H](Cc2c[nH]c3ccccc23)C1=O [Compound 7b]
Result: 390

====

Tested on: glioblastoma U-251 MG
Assay: MTT cell viability assay, U-251 MG
Format: cell-based, human
Conditions: 72 h, median (95% Confidence Intervals)
measurementKind: pIC50
pIC50 (log units): -log10 of the concentration in mol/L.

Query: Look up pIC50 for this compound: N.N.[Cl][Pt][Cl] [Cisplatin, cisplatin, reference compound]
Result: 5.58

====

Entries and their measured IC50 follow.
System: hepatocellular carcinoma HEPG2
Assay: MTT cell viability assay, HEPG2
Type: cell-based, human
Conditions: Homo sapiens, 72 h, median (95% Confidence Intervals)
Write the numeric value and follow it with the unit.

Query: Look up IC50 for this compound: CN1CC(=O)N2[C@H](c3ccc4c(c3)OCO4)c3[nH]c4ccccc4c3C[C@@H]2C1=O [Tadalafil, reference compound]
Result: 46.6 µM

Query: Look up IC50 for this compound: `CN1CC(=O)N(Cc2cc3c(cc2Br)OCO3)[C@@H](Cc2c[nH]c3ccccc23)C1=O`
Result: 124 µM

Query: Look up IC50 for this compound: `CN1CC(=O)N(Cc2cc3c(cc2Br)OCO3)[C@H](Cc2c[nH]c3ccccc23)C1=O`
Result: 103 µM

====

System: larynx squamous cell carcinoma BICR 18
Assay: MTT cell viability assay, BICR 18
Assay type: cell-based, human
Details: BICR 18, MTT, 72 h; median (95% Confidence Intervals)
measurementKind: pIC50
pIC50 (log units): -log10 of the concentration in mol/L.

Query: Look up pIC50 for this compound: N.N.[Cl][Pt][Cl] [Cisplatin, cisplatin, reference compound]
Result: 5.77

====

System: breast adenocarcinoma MCF7
Experiment: MTT cell viability assay, MCF7
Type: cell-based, human
Conditions: Homo sapiens, 72 h, median (95% Confidence Intervals)
measurementKind: IC50 (µM)
Numeric answer only, unit µM assumed.

Query: Please state recorded IC50 (tested on breast adenocarcinoma MCF7) of CN1CC(=O)N(Cc2ccc3c(c2)OCO3)[C@@H](Cc2c[nH]c3ccccc23)C1=O [Compound 6b]
Result: 54.1

Query: Please state recorded IC50 (tested on breast adenocarcinoma MCF7) of CN1CC(=O)N(Cc2ccc3c(c2)OCO3)[C@H](Cc2c[nH]c3ccccc23)C1=O [Compound 6a]
Result: 53.2

Query: Please state recorded IC50 (tested on breast adenocarcinoma MCF7) of CN1CC(=O)N(Cc2cc3c(cc2Br)OCO3)[C@@H](Cc2c[nH]c3ccccc23)C1=O [Compound 7b]
Result: 36.3

Query: Please state recorded IC50 (tested on breast adenocarcinoma MCF7) of CN1CC(=O)N(Cc2cc3c(cc2Br)OCO3)[C@H](Cc2c[nH]c3ccccc23)C1=O [Compound 7a]
Result: 28.9

Query: Please state recorded IC50 (tested on breast adenocarcinoma MCF7) of CN1CC(=O)N2[C@H](c3ccc4c(c3)OCO4)c3[nH]c4ccccc4c3C[C@@H]2C1=O [Tadalafil, reference compound]
Result: 55.3

Every entry's value here was drawn from paper PMC7913621.
